Just for reference, ChEMBL document CHEMBL5726611 is where these values come from.

Molecular target: Coagulation factor XI (Homo sapiens, UniProt P03951)
Sequence (P03951 19-387 limits assumed): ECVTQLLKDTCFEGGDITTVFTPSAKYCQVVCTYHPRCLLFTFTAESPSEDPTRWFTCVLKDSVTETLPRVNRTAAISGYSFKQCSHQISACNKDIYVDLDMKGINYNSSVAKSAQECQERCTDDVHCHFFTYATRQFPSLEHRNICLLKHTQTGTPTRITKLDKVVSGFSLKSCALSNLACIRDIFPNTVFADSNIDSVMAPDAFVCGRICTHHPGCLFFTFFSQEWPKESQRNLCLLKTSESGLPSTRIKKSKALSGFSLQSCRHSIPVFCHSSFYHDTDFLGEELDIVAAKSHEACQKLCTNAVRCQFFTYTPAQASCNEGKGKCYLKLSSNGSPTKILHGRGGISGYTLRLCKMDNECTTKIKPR
Sequence (P03951 388-625 limits assumed): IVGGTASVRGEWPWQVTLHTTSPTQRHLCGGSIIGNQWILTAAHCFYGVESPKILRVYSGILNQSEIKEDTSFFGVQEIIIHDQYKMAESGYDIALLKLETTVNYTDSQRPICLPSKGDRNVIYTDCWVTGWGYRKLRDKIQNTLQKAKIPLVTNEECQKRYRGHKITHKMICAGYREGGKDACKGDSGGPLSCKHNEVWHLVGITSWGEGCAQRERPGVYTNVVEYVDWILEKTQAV
Assay: Factor XIa Assay: The effectiveness of a compound of the present invention as an inhibitor of Coagulation Factor XIa can be determined using a relevant purified serine protease, and an appropriate synthetic substrate. The rate of hydrolysis of the chromogenic or fluorogenic substrate by the relevant serine protease was measured both in the absence and presence of compounds of the present invention. Assays were conducted at rt or at 37° C. […] A decrease in the rate of fluorescence change in the presence of inhibitor is indicative of enzyme inhibition. Such methods are known to one skilled in the art. […] Times required to achieve equilibration between enzyme and inhibitor were determined in control experiments. Initial velocities of product formation in the absence (Vo) or presence of inhibitor (Vi) were measured. Assuming competitive inhibition, and that unity is negligible compared Km/[S], [I]/e, and [I]/e (where [S], [I], and e respectively represent the total concentrations, of substrate, inhibitor and enzyme), the equilibrium constant (Ki) for dissociation of the inhibitor from the enzyme can be obtained from the dependence of Vo/Vi on [I] shown in the following equation.
Ki listing for selected molecules.
Give your result in nM as a bare value.

molecule="COC(=O)Nc1ccc2c(c1)NC(=O)CCCCC(c1ccc(-c3cc(Cl)ccc3-n3cc(C4CC4)nn3)cn1)c1cccc-2c1 (stereo not drawn)" u=nM reported_value=137
molecule="COC(=O)Nc1ccc2c(c1)NC(=O)CCCCC(c1ccc(-c3cc(Cl)ccc3-c3cnco3)cn1)c1cccc-2c1 (stereo not drawn)" u=nM reported_value=259
molecule="COC(=O)Nc1ccc2c(c1)NC(=O)CCCCC(c1ccc(-c3cc(Cl)ccc3OC(F)(F)F)cn1)c1cccc-2c1 (stereo not drawn)" u=nM reported_value=399

For record COC(=O)Nc1ccc2c(c1)NC(=O)CCCCC(c1ccc(-c3cc(Cl)ccc3C#N)cn1)c1cccc-2c1 (stereo not drawn) the listed Ki is 41

For record COC(=O)Nc1ccc2c(c1)NC(=O)CCCCC(c1ccc(-c3cc(Cl)ccc3OC(F)F)cn1)c1cccc-2c1 (stereo not drawn) the listed Ki is 181

For record COC(=O)Nc1ccc2c(c1)NC(=O)CCCCC(c1ccc(-c3cc(Cl)ccc3-n3cc(C(F)F)nn3)cn1)c1cccc-2c1 (stereo not drawn) the listed Ki is 9.2

* * *

Target: Coagulation factor XI (Homo sapiens)
Assay: Factor XIa Assay: The effectiveness of a compound of the present invention as an inhibitor of Coagulation Factor XIa can be determined using a relevant purified serine protease, and an appropriate synthetic substrate. The rate of hydrolysis of the chromogenic or fluorogenic substrate by the relevant serine protease was measured both in the absence and presence of compounds of the present invention. Assays were conducted at rt or at 37° C. […] A decrease in the rate of fluorescence change in the presence of inhibitor is indicative of enzyme inhibition. Such methods are known to one skilled in the art. […] Times required to achieve equilibration between enzyme and inhibitor were determined in control experiments. Initial velocities of product formation in the absence (Vo) or presence of inhibitor (Vi) were measured. Assuming competitive inhibition, and that unity is negligible compared Km/[S], [I]/e, and [I]/e (where [S], [I], and e respectively represent the total concentrations, of substrate, inhibitor and enzyme), the equilibrium constant (Ki) for dissociation of the inhibitor from the enzyme can be obtained from the dependence of Vo/Vi on [I] shown in the following equation.
pKi listing for selected molecules.
The meaning of pKi here: minus log10 of the concentration in molar units.

Please review the entries below; each comes with its answer.
molecule="COC(=O)Nc1ccc2c(c1)NC(=O)CCCCC(c1ccc(-c3cc(Cl)ccc3-n3cc(Cl)nn3)cn1)c1cccc-2c1 (centres undefined)" target_under_test="Coagulation factor XI (Homo sapiens)" reported_value=7.92
molecule="COC(=O)Nc1ccc2c(c1)NC(=O)CCCCC(c1ccc(-c3cc(Cl)ccc3-n3cc(C(F)(F)F)nn3)cn1)c1cccc-2c1 (centres undefined)" target_under_test="Coagulation factor XI (Homo sapiens)" reported_value=7.74
molecule="COC(=O)Nc1ccc2c(c1)NC(=O)CCCCC(c1ccc(-c3cc(F)ccc3-n3cnnn3)cn1)c1cccc-2c1 (centres undefined)" target_under_test="Coagulation factor XI (Homo sapiens)" reported_value=8.15

For the next question, use this molecule.
For record COC(=O)Nc1ccc2c(c1)NC(=O)CCCCC(c1ccc(-c3c(-n4cnnn4)ccc(Cl)c3F)cn1)c1cccc-2c1 (centres undefined) the listed pKi is 9.62
